These entries and their values trace back to paper PMC10244618.

B1: NF2 (merlin) isoform 7, human, full length (507 aa, lacks exons 2-3 = isoform-1 residues 39-121; exon-16 C-terminus), P35240-4 (parent)
chain: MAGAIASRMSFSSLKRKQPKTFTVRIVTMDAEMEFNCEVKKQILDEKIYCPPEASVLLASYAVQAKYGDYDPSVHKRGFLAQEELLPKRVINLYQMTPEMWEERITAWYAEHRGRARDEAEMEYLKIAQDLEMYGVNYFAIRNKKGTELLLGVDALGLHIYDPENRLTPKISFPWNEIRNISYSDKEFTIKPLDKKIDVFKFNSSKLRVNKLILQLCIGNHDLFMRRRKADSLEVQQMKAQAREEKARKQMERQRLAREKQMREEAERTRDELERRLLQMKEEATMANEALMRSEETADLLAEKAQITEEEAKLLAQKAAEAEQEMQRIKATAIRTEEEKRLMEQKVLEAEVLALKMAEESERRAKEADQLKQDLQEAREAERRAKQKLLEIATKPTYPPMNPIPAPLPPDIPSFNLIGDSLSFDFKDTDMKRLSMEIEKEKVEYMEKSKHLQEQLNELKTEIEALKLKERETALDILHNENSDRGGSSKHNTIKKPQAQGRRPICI

Variants of: B1
Test: reverse yeast two-hybrid deep mutational scan (rY2H-seq): NF2 isoform 7 mutant library as bait mated with wild-type prey strains; selection on medium lacking adenine for non-interacting pairs; NextSeq paired-end sequencing; enrichment vs …
Conditions: with EMILIN1 (elastin microfibril interfacer 1), Q9Y6C2; yeast diploids after mating (RBait_S3 x RPrey_S3), 30 °C, selection for reporter genes on NB agar; human ABL2 co-expressed as the kinase-dead K35M mutant …; HIGHER = WEAKER BINDING (the opposite of display enrichments): higher = stronger loss of interaction: reverse Y2H selects yeast in which bait and prey do NOT interact (growth without adenine), so a …; hits-only table; scale: rY2H score; numbering: uniprot, sequence starts at 1

{"columns": ["MUTATION_NAME", "enrichment"],
 "data": [
  ["E259V", 2.5],
  ["K318T", 1.91],
  ["P396L", 3.03],
  ["E259L", 1.55],
  ["Q373Y", 2.52],
  ["R328A", 2.29],
  ["L58K", 3.39],
  ["D476K", 6.16],
  ["L375E", 3.04],
  ["R341E", 3.61],
  ["V352E", 1.87],
  ["M431E", 5.53]
]}
